For each of the molecules below, state its pEC50.
assay target: tiTac3ra (Oreochromis niloticus, UniProt A0A075QPN8)
Sequence (A0A075QPN8 1-415): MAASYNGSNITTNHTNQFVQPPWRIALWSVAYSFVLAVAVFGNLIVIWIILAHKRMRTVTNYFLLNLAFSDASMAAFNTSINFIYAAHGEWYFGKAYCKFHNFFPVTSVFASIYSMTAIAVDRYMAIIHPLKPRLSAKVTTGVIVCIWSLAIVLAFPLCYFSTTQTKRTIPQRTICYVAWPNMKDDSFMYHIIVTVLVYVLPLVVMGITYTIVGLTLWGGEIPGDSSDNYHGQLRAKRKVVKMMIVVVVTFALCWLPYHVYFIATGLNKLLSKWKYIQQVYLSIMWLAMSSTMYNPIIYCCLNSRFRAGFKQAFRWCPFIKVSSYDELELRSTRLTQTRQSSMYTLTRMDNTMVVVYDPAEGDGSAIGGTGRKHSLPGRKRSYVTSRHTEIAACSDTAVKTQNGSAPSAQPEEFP
experimental protocol: cell-based
test conditions: EC50 tiTac3ra CRE, CRE-Luc reporter (PKA/cAMP), COS-7 cells, mean ± SEM
Starred links: 1 amine or outer side, 2 acyl side, 3 side chain; linkers in the order of their positions; H or OH if unused. Non-standard residues stand in square brackets, D forms with d. Residues, ends and D or L forms follow the SMILES beside them. NMeF = CN[C@@H](Cc1ccccc1)C(=O)O; NMeI = CC[C@H](C)[C@H](NC)C(=O)O; Suc = O=C(CCC(=O)[*:2])[*:1]
Numbers only, as −log10 of the molar value.

// known answers, use as guide
# molecule, quantitative result
data = [
    ("CSCC[C@H](NC(=O)[C@H](CC(C)C)NC(=O)CNC(=O)[C@H](C(C)C)N(C)C(=O)[C@H](Cc1ccccc1)NC(=O)[C@H](CO)NC(=O)[C@H](CC(=O)O)NC(=O)CCC(=O)O)C(N)=O", 8.59),
    ("CSCC[C@H](NC(=O)[C@H](CC(C)C)NC(=O)CNC(=O)[C@H](Cc1ccccc1)N(C)C(=O)[C@H](Cc1ccccc1)NC(=O)[C@H](CC(=O)O)NC(=O)CCC(=O)O)C(N)=O [Senktide] (Suc-DF[NMeF]GLM-NH2)", 7.85),
    ("CC[C@H](C)[C@H](NC(=O)[C@H](CC(=O)O)NC(=O)CCC(=O)O)C(=O)N[C@@H](Cc1ccccc1)C(=O)N(C)[C@H](C(=O)NCC(=O)N[C@@H](CC(C)C)C(=O)N[C@@H](CCSC)C(N)=O)[C@@H](C)CC [tiNKB analog] (Suc-DIF[NMeI]GLM-NH2)", 7.89),
]

Here is the next item to consider.
# pEC50 lookup, item CSCC[C@H](NC(=O)[C@H](CC(C)C)NC(=O)CNC(=O)[C@@H](NC(=O)[C@H](Cc1ccccc1)NC(=O)[C@H](CO)NC(=O)[C@H](CC(=O)O)NC(=O)[C@H](Cc1ccc(O)cc1)NC(=O)[C@H](CC(=O)O)NC(=O)[C@H](CC(C)C)NC(=O)[C@H](CC(=O)O)NC(=O)[C@H](CC(N)=O)NC(=O)[C@@H](N)Cc1ccc(O)cc1)C(C)C)C(N)=O [tiNKF] (H-YNDLDYDSFVGLM-NH2) 8.50

----------
For each of the molecules below, state its pEC50.
assay target: zfTac3rb (Danio rerio, UniProt F1R3V0)
Sequence (F1R3V0 1-395): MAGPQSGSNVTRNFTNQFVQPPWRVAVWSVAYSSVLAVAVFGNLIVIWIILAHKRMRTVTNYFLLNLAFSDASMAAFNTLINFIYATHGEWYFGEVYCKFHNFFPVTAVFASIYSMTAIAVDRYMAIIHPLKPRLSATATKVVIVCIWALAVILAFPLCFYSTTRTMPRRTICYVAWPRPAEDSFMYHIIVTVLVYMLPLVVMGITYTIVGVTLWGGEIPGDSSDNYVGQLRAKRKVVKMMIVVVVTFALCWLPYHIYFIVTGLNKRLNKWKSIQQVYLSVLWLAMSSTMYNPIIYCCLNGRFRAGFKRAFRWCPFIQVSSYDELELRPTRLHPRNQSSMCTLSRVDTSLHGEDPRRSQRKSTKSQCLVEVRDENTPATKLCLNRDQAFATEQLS
experimental protocol: CRE-/SRE-Luc receptor transactivation reporter assay in COS-7 cells, zebrafish Tac3rb
Type: cell-based
test conditions: CRE-Luc reporter (PKA/cAMP), mean ± SEM, read-out: EC50 zfTac3rb CRE
Starred links: 1 amine or outer side, 2 acyl side, 3 side chain; linkers in the order of their positions; H or OH if unused. Non-standard residues stand in square brackets, D forms with d. Residues, ends and D or L forms follow the SMILES beside them. Suc = O=C(CCC(=O)[*:2])[*:1]; NMeV = CN[C@H](C(=O)O)C(C)C
Give bare numbers, as −log10 of the molar value.

// known answers, use as guide
# molecule, pEC50
records = [
    ("CC[C@H](C)[C@H](NC(=O)[C@H](CC(=O)O)NC(=O)CCC(=O)O)C(=O)N[C@@H](Cc1ccccc1)C(=O)N(C)[C@H](C(=O)NCC(=O)N[C@@H](CC(C)C)C(=O)N[C@@H](CCSC)C(N)=O)C(C)C [zfNKBa analog] (Suc-DIF[NMeV]GLM-NH2)", 9.11),
    ("CC[C@H](C)[C@H](NC(=O)[C@H](CC(=O)O)NC(=O)[C@H](Cc1c[nH]cn1)NC(=O)[C@H](CCSC)NC(=O)[C@@H](N)CCC(=O)O)C(=O)N[C@@H](Cc1ccccc1)C(=O)N[C@H](C(=O)NCC(=O)N[C@@H](CC(C)C)C(=O)N[C@@H](CCSC)C(N)=O)C(C)C [zfNKBa] (H-EMHDIFVGLM-NH2)", 7.38),
    ("CC[C@H](C)[C@H](NC(=O)[C@H](CC(=O)O)NC(=O)[C@H](CC(N)=O)NC(=O)[C@@H](N)Cc1ccc(O)cc1)C(=O)N[C@@H](CC(=O)O)C(=O)N[C@@H](Cc1ccc(O)cc1)C(=O)N[C@@H](CC(=O)O)C(=O)N[C@@H](CO)C(=O)N[C@@H](Cc1ccccc1)C(=O)N[C@H](C(=O)NCC(=O)N[C@@H](CC(C)C)C(=O)N[C@@H](CCSC)C(N)=O)C(C)C [zfNKF] (H-YNDIDYDSFVGLM-NH2)", 10.49),
]

Here is the next item to consider.
# pEC50 lookup, item CSCC[C@H](NC(=O)[C@H](CC(C)C)NC(=O)CNC(=O)[C@H](C(C)C)N(C)C(=O)[C@H](Cc1ccccc1)NC(=O)[C@H](CO)NC(=O)[C@H](CC(=O)O)NC(=O)CCC(=O)O)C(N)=O [NKF analog] 8.57
